Reference source for all entries: PubChem BioAssay (NCATS)

# system: Single-stranded DNA cytosine deaminase (Homo sapiens) (UniProt Q9GZX7)
# Sequence (Q9GZX7 whole entry, looked up): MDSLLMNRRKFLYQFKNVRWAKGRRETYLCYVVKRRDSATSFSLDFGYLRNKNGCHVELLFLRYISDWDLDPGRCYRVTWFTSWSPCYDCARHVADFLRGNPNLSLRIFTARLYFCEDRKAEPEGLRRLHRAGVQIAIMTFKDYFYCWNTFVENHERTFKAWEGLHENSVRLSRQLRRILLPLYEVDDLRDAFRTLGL
# protocol details: Validation qHTS assay for inhibitors of Activation Induced Cytidine Deaminase (AID): AID signal (AID 1347429)
# assay setup: Recombinant AID, FRET ssDNA deamination with UDG, fluorescence; series mostly up to 115 µM
Active and inactive are the calls of the source. Calls come from the whole dose curve; as a rule, active = well fitted inhibition curve with a large enough effect; inconclusive = small, poorly fitted or top-dose-only effect; inactive = no such curve, though single readings can be large or run the other way.
Give your call using only these classes: 1 for active, -1 for inactive

I would be grateful if you could indicate the recorded call for C/C=C/CC(C)C(O)C1C(=O)NC(CC)C(=O)N(C)CC(=O)N(C)C(CC(C)C)C(=O)NC(C(C)C)C(=O)N(C)C(CC(C)C)C(=O)NC(C)C(=O)NC(C)C(=O)N(C)C(CC(C)C)C(=O)N(C)C(CC(C)C)C(=O)N(C)C(C(C)C)C(=O)N1C (configuration not stated) .
-1

I would be grateful if you could indicate the recorded call for Oc1cc2c(c(Cl)c1O)CCNCC2c1ccccc1 (configuration not stated) .
-1

I would be grateful if you could indicate the recorded call for C1CCC(N=C(NC23CC4CC(CC(C4)C2)C3)N2CCOCC2)CC1 .
-1

I would be grateful if you could indicate the recorded call for Nc1c(S(=O)(=O)O)cc(Nc2ccc(Nc3nc(Cl)nc(Nc4ccc(S(=O)(=O)O)cc4)n3)c(S(=O)(=O)O)c2)c2c1C(=O)c1ccccc1C2=O .
1

I would be grateful if you could indicate the recorded call for N#C/C(=C\c1ccc(O)c(O)c1)C(=O)Nc1ccccc1 .
-1

I would be grateful if you could indicate the recorded call for O=Nc1c(-c2c(O)[nH]c3ccccc23)[nH]c2ccccc12 .
-1

I would be grateful if you could indicate the recorded call for CN1C2CCCC1CC(NC(=O)c1nn(C)c3ccccc13)C2 (configuration not stated) .
-1
